This collection of values is drawn from patent US9062056B2.

Lab note: log10(IC50) readings collected with Chymase (Homo sapiens, UniProt P23946) for the following compounds.
Sequence (P23946 22-247, species assumed): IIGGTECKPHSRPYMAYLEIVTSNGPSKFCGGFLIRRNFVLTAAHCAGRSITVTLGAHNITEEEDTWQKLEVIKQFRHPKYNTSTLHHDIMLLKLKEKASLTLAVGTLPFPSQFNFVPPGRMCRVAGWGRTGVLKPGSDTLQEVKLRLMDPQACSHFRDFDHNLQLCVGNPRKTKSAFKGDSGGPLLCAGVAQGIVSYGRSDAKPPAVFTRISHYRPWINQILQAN
measured.metric: log10(IC50) (log10 of the value in nM)

>>> experimental_value("CCC[C@@H](CC(=O)O)n1c(=O)n(Cc2cn(C)c3cccc(C)c23)c2cccnc21")
0.69
>>> experimental_value("COc1ccc2c(n1)n([C@H](CC(=O)O)c1ccccc1)c(=O)n2Cc1cn(C)c2cccc(C)c12")
0.31
>>> experimental_value("Cc1cc(C)c2c(Cn3c(=O)n([C@H](CC(=O)O)c4ccc(F)cc4)c4nc(C#N)ccc43)cn(C)c2c1")
-0.64
>>> experimental_value("CCCC(CC(=O)O)n1c(=O)n(Cc2cn(C)c3cc(C)cc(C)c23)c2ccc(C(N)=O)nc21 (stereo not shown)")
0.29
>>> experimental_value("CCC[C@@H](CC(=O)NS(C)(=O)=O)n1c(=O)n(Cc2cn(C)c3cccc(C)c23)c2cccnc21")
1.07
>>> experimental_value("CCC[C@@H](CC(=O)NS(=O)(=O)c1cn(C)cn1)n1c(=O)n(Cc2cn(C)c3cccc(C)c23)c2cccnc21")
0.83
>>> experimental_value("Cc1cc(C)c2c(Cn3c(=O)n([C@H](CC(=O)O)c4ccccc4)c4ncccc43)nsc2c1")
0.63
>>> experimental_value("Cc1cc(C)c2c(Cn3c(=O)n([C@H](CC(=O)O)c4ccc(Cl)cc4)c4nc(C)ccc43)nsc2c1")
-0.20
>>> experimental_value("CCC[C@@H](CC(=O)NS(=O)(=O)C(C)(C)C)n1c(=O)n(Cc2cn(C)c3cccc(C)c23)c2cccnc21")
0.00
>>> experimental_value("Cc1ccc2c(n1)n([C@H](CC(=O)O)c1cccnc1)c(=O)n2Cc1cn(C)c2cccc(C)c12")
1.03
>>> experimental_value("CCC[C@@H](CC(=O)O)n1c(=O)n(Cc2cn(C)c3cccc(C)c23)c2cc(C)cnc21")
0.54
>>> experimental_value("CCC[C@@H](CC(=O)O)n1c(=O)n(Cc2cn(C)c3cccc(C)c23)c2cnccc21")
1.28
>>> experimental_value("CCC[C@@H](CC(=O)O)n1c(=O)n(Cc2cn(C)c3cccc(C)c23)c2ccc(C)nc21")
0.65
>>> experimental_value("Cc1cc(C)c2c(Cn3c(=O)n(CC4(C(=O)O)CCCCC4)c4nc(C)ccc43)nsc2c1")
0.16
>>> experimental_value("Cc1cccc2c1c(Cn1c(=O)n([C@H](CC(=O)O)c3ccccc3)c3ccncc31)cn2C")
0.59
>>> experimental_value("Cc1cccc2c1c(Cn1c(=O)n([C@H](CC(=O)O)c3ccccc3)c3nc(C4CC4)ncc31)cn2C")
0.70
>>> experimental_value("CCC[C@@H](CC(=O)O)n1c(=O)n(Cc2cn(C)c3cc(C)cc(C)c23)c2ccc(C)nc21")
-0.09
>>> experimental_value("Cc1ccc2c(n1)n([C@H](CC(=O)O)c1ccccc1)c(=O)n2Cc1cn(C)c2cccc(C)c12")
0.40
>>> experimental_value("Cc1ccc2c(n1)n([C@H](CC(=O)O)c1ccc(Cl)cc1)c(=O)n2Cc1cn(C)c2cccc(C)c12")
-0.59
